Reported SH2 binding enrichment by item:
# Subject Of Test: c-Src SH2
# Protocol Summary: SH2 binding enrichment of the phosphorylated peptide, bacterial display (enrichment ratio); higher = better substrate or ligand; peptides without Tyr show the background
Quantity Name: SH2 binding enrichment

Sequence Chain | Observed Measurement
GARGRYVMGGP [TNK1_Y277] | 0.435
HNVPICEGYAL [ACTC1_Y168_Y168C] | 0.587
GYKVRYATGSI [FGFR1_Y210_W213G] | 1.03
PGVNYYFRVSA | 0.611
RLLRGYDQLAY [HLA-C_Y137_S140L] | 5.06
EVESPYEVHDY [GIGYF2_Y1168] | 0.485
QDRTYYERVRT [SPEN_Y633_S635R] | 2.47

====

# Subject Of Test: Fyn (UniProt P06241)
# Sequence (P06241 whole entry, looked up): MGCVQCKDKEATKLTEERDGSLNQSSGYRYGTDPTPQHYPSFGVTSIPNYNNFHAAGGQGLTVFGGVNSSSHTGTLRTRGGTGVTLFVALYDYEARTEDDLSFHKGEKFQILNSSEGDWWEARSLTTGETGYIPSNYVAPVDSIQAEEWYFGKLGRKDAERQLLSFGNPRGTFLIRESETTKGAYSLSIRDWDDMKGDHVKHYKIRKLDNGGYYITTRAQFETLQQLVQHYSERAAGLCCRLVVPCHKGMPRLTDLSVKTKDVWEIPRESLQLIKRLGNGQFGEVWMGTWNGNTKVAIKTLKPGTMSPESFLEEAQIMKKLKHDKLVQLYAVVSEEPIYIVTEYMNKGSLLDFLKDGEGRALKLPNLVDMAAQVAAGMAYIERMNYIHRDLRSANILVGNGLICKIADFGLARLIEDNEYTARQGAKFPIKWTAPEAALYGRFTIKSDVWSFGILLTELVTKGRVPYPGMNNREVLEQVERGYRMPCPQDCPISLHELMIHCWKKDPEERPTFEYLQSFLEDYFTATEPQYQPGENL
# Protocol Summary: phosphorylation enrichment, bacterial display (enrichment ratio); higher = better substrate or ligand; peptides without Tyr show the background
Reported phosphorylation enrichment values for the following sequences.
Quantity Name: phosphorylation enrichment

Sequence Chain | Quantity Name | Observed Measurement
FTFTSYFMHWV [IGHV1-46_Y51_YF] | phosphorylation enrichment | 0.474
RRAKGYPINLY [ITGB2_Y125_D128N] | phosphorylation enrichment | 0.963
GVLKEYGVKVL [CPS1_Y529] | phosphorylation enrichment | 0.378
FSQQTYCRVSN [ABCD1_Y180_Y181C] | phosphorylation enrichment | 0.557
WIPNQYPIISE [NOG_Y222_I220N] | phosphorylation enrichment | 0.361
MKALGYFAVVK [OPA1_Y498_T503K] | phosphorylation enrichment | 0.464
ILTFKYLQIPM [KIT_Y547_K550I_YF] | phosphorylation enrichment | 0.468
GVTLLYFGRFN [ADGRD1_Y85_YF] | phosphorylation enrichment | 0.562
ANRNVYEVEPT [MEGF10_Y1075] | phosphorylation enrichment | 6.32
CENNRYGMGAS [PDHA1_Y227_T231A] | phosphorylation enrichment | 0.405
KILGTYYETGS [PAX2_Y72_R71T] | phosphorylation enrichment | 0.769
QDGFSYPSRQM [LDLR_Y847_YF] | phosphorylation enrichment | 0.434
ANYTEYVATRW [CDKL5_Y171] | phosphorylation enrichment | 0.945
TSNQEYLDLSM [FGFR1_Y766] | phosphorylation enrichment | 0.485

====

Recorded phosphorylation enrichment, one value per entry.
# Subject Of Test: FGFR1 (UniProt P11362)
# Sequence (P11362 whole entry, looked up): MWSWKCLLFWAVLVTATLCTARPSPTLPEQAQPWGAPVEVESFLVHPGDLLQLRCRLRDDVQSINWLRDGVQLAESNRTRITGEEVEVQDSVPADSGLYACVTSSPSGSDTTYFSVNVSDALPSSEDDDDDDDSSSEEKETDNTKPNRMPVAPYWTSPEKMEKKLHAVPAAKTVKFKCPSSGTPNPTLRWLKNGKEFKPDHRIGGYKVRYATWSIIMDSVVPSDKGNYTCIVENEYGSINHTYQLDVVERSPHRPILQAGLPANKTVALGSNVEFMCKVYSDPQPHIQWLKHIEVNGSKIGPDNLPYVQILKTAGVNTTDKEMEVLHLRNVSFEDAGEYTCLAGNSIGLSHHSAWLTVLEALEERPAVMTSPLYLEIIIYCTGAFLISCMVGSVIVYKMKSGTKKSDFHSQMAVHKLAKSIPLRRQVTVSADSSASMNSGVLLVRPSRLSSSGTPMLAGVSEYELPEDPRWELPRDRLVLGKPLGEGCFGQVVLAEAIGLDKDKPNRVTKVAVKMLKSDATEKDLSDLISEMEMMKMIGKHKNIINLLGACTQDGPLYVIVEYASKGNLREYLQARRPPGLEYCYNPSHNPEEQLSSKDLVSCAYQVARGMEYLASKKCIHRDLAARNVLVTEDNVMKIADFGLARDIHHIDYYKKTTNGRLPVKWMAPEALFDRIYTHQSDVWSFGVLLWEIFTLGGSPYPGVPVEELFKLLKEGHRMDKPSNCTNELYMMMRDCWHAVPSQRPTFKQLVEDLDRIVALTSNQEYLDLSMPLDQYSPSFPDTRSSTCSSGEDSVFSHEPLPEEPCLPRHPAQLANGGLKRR
# Protocol Summary: phosphorylation enrichment, bacterial display (enrichment ratio); higher = better substrate or ligand; peptides without Tyr show the background

Sequence Chain | Subject Of Test | phosphorylation enrichment
KNKELYSDLFD [PDE10A_Y300] | FGFR1 (UniProt P11362) | 0.556
ERPGVHTNVVE [F11_Y608_Y608H] | FGFR1 (UniProt P11362) | 0.46
GVASDYKCIDP [VPS13B_Y1991] | FGFR1 (UniProt P11362) | 0.724
RRAKGYPINLY [ITGB2_Y125_D128N] | FGFR1 (UniProt P11362) | 0.814
PLQKTYNYNML [SLC4A1_Y553_V557M] | FGFR1 (UniProt P11362) | 0.589
KNEVFYQCPDQ [FBXO3_Y223] | FGFR1 (UniProt P11362) | 1.26
PFSSPYENSLI [EPOR_Y489_N487S_YF] | FGFR1 (UniProt P11362) | 0.604

Every entry's value here was drawn from the supplement of paper PMC10065799.
